B1: tRNA (parent)
chain: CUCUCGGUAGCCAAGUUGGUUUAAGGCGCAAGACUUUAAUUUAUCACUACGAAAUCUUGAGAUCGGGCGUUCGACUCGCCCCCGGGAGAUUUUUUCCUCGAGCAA

Variants of: B1
Run description: nonsense suppression (GFP-seq) (ratio to wild type); higher = more function; SUP4oc tRNA, yeast GFP reporter sort-seq
Variants at the floor of the assay were thinned out.
Form field: nonsense suppression (one value per entry).
Measurement name: nonsense suppression

# Variant spec, Measurement name, Endpoint value
records = [
    ("C11U U22C", "nonsense suppression", 0.0289),
    ("C29U U35C U58G C64U G66C", "nonsense suppression", "≤ 0.026"),
    ("G67C U70G", "nonsense suppression", "≤ 0.026"),
    ("C29U G65A C81U", "nonsense suppression", 1.14),
    ("C12A G28C A31G U57G", "nonsense suppression", "≤ 0.026"),
    ("A31U U57A", "nonsense suppression", 0.963),
    ("A30G U76A", "nonsense suppression", 0.043),
    ("A24G G61A U76C", "nonsense suppression", 0.0509),
    ("A14U A24U G26U C29G", "nonsense suppression", "≤ 0.026"),
    ("A13U C75A", "nonsense suppression", 0.866),
    ("G28C G59A", "nonsense suppression", "≤ 0.026"),
    ("U17A A24G", "nonsense suppression", 0.0262),
    ("C12U A54C", "nonsense suppression", 0.0512),
    ("U21C A60U C68U", "nonsense suppression", 1.05),
    ("C3A C29A A54U", "nonsense suppression", "≤ 0.026"),
    ("G7C A14C G61U A74U A87G", "nonsense suppression", "≤ 0.026"),
    ("U4A C83G G88C", "nonsense suppression", "≤ 0.026"),
    ("A24G A31U C34U A74G", "nonsense suppression", "≤ 0.026"),
    ("C1U U55G U58G", "nonsense suppression", "≤ 0.026"),
    ("C12U G78U", "nonsense suppression", 0.0326),
    ("A9U C75U", "nonsense suppression", 0.656),
    ("C3A G66C", "nonsense suppression", "≤ 0.026"),
    ("G6A G78A", "nonsense suppression", 0.037),
    ("U4G A30U", "nonsense suppression", 0.0386),
    ("A24G C75U", "nonsense suppression", 0.185),
    ("C3A G28U G65C", "nonsense suppression", "≤ 0.026"),
    ("U21G A24C", "nonsense suppression", 0.493),
    ("C72G G73A", "nonsense suppression", 0.0319),
    ("A54C C82U", "nonsense suppression", 0.211),
    ("U22A G25U", "nonsense suppression", 0.0283),
    ("C12A G18U U70C G88U", "nonsense suppression", "≤ 0.026"),
    ("U4G U20A", "nonsense suppression", 0.0644),
    ("G6U U76G", "nonsense suppression", "≤ 0.026"),
    ("G25C C75A", "nonsense suppression", 0.826),
    ("U2C C27A C82U", "nonsense suppression", "≤ 0.026"),
    ("U2G G78U", "nonsense suppression", 0.0774),
    ("G66A C72G", "nonsense suppression", "≤ 0.026"),
    ("A23U A31G A33G G67C", "nonsense suppression", "≤ 0.026"),
    ("U21A C34G C82U A89U", "nonsense suppression", "≤ 0.026"),
    ("G6A G25C A33G", "nonsense suppression", "≤ 0.026"),
    ("U4A G10A U21G G28C", "nonsense suppression", "≤ 0.026"),
    ("C34G G61A", "nonsense suppression", 0.0334),
    ("C12G A33U", "nonsense suppression", "≤ 0.026"),
    ("C34G U55C", "nonsense suppression", 0.276),
    ("C3U C27G", "nonsense suppression", 0.0543),
    ("U8C U35G U71A", "nonsense suppression", "≤ 0.026"),
]
